Source: patent EP4796630A2

TEST_SYSTEM: T1, recombinant GST-SNAP25197 (UniProt P60880 1-197)
T1 construct: range 1-197; also called BoNT/A-cleaved form of SNAP25
T1 sequence (P60880 1-197 limits assumed): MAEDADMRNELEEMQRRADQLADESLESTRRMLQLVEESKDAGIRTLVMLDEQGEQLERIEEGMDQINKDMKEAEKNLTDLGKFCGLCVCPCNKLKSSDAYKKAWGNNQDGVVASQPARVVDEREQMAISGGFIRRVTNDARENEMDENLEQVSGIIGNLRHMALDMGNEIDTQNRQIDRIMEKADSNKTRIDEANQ
PROTOCOL: BLI (Octet Red96), IgG on AMC biosensor, GST-SNAP25197 as analyte
Quick reference: kon of the listed items.
Use M⁻¹ s⁻¹ as the unit, but write only the number.

GET /value?item= C24 IgG (antibody, V domains shown) VH: EVKLVESGGGLVQPKGSLKLSCAASGYTFNTYAMNWVRQAPGKGLEWVARIRSKSNNYTTYYADSVKDRFTISRDDSQSMLYLQINNLKTEDTAMYYCVGQILYYYVGSPAWFAYWGQGTLVTVSA VL: DIVMTQSPASLAVSLGQRATISCRASKSVSTSGYSYMHWYQQKPGQPPKLLIFLASNLESGVPARFSGSGSGTDFTLNIHPVEEEDAATYYCQHSRELPWTFGGGTKLEIK &field=kon returns 86800

GET /value?item= C4 IgG (antibody, V domains shown) VH: DVKLQESGPGLVKPSQSLSLTCTVTGYSITSDYAWNWIRQFPGNKLEWMGYISYSVGTRYNPSLKSRISITRDTSKNQFFLLLKSVTNEDTATYFCARKGEYGFAYWGQGTLVTVSA VL: DIVMTQSPASLAVSLGQRATISCRASKSVSTSGYSYMHWYQQKPGQPPKLLIYLASNLESGVPARFSGSGSGTDFTLNIHPVEEEDAATYYCQHSRELPLTFGAGTKLELK &field=kon returns 92800

***
GET /value?item= C7 IgG (antibody, V domains shown, also called C7 IgG2a) VH: QVQLVETGGGLVQPKGSLKLSCAASGFTFNTNAMNWVRQAPGKGLEWVARIRSKSNNYATYYADSVKDRFTISRDDSQSLLYLQMNNLKTEDTAMYYCVYGRSYGGLSYWGQGTLVTVSA VL: DIVMTQSPASLAVSLGQRATISCRASKSVSSSGYSYMHWYQQKPGQPPKLLIYLASNLESGVPARFSGSGSGTDFTLNIHPVEEEDAATYYCQHSRELPLTFGAGTKLELK &field=kon returns 77800

GET /value?item= C14 IgG (antibody, V domains shown) VH: EVKLVESGGGLVQPKGSLKLSCAASGFTFNTNAMNWVRQAPGKGLEWVARIRSKSDNYATYYADSVKDRFTISRDDSPSMLYLQMNNLKTEDTAMYYCVYGRSYGGLGYWGQGTLVTVSA VL: DIVLTQSPASLAVSLGQRATISCRASKSVSTSGYSYVHWYQQKPGQPPKLLIYLASNLESGVPARFSGSGSGTDFTLNIHPVEEEDAATYYCQHSRELPLTFGAGTKLELK &field=kon returns 76700
